# Test system: GH3-TRE-Luc cell line
# conditionParameters: read-out: AC50 (uM) modified / 1000; Tox21_110001=Tox21_200384; viability, 1 nM T3 present, 24 h
readoutType: CC50 (µM)

[
  {
    "compound": "Oc1c(Cl)cc(Cl)cc1Sc1cc(Cl)cc(Cl)c1O [Bithionol]",
    "readoutType": "CC50",
    "valueMeasured": 6.76
  }
]

###

# protocolDetails: in vitro
# conditionParameters: rat, gh3-tre-luc cells, AC50 (uM) modified / 1000, Tox21_110001=Tox21_201498; viability, 1 nM T3 present, 24 h
Where a name gives a salt, the structure may show the parent alone.
readoutType: CC50 at 24 h

[
  {
    "molecule": "COc1ccc(N)cc1 [4-Methoxyaniline hydrochloride]",
    "readoutType": "CC50 at 24 h",
    "valueMeasured": "> 90 µM"
  }
]

From: paper PMC6792352
